Reference source for all entries: paper PMC9579956

# experimental-system: Mycobacterium thermoresistible (Mtr) LpqY (Mycolicibacterium thermoresistibile)
# Sequence (G7CES0 29-471): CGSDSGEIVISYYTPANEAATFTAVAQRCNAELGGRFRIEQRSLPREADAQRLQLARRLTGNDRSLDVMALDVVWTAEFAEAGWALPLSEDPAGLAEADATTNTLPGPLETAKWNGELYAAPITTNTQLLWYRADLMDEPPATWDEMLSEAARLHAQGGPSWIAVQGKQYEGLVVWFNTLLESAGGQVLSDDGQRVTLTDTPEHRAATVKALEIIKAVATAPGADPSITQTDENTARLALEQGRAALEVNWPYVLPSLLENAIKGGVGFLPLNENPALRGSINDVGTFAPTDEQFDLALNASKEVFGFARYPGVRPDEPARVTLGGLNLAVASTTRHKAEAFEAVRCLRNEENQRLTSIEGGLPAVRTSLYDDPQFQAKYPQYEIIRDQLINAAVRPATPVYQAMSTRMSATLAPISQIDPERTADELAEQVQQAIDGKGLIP
# Type: binding
# assay-conditions: quadruplicate, new batch of LpqY
assay-endpoint: Validation binding score (MST)

>>> observed_result("CNC(=O)C1Cc2c([nH]c3cc(Cl)ccc23)C2(CCN(CCc3ccccc3)CC2)N1 (stereo not shown)")
3.7
>>> observed_result("COc1ccc(N(CCc2cccc(C)n2)C(=O)C2CCCCC2)cc1")
4.9
>>> observed_result("CC1(C)OB(O)c2ccc(C3=NOC(c4cc(Cl)c(F)c(Cl)c4)(C(F)(F)F)C3)cc21 (stereo not shown)")
3.9
>>> observed_result("COc1cc(NC(C)CCCN)c2ncccc2c1 (stereo not shown) [MMV000023, Primaquine, reference compound]")
21.6
